Reference for the values: ChEMBL document CHEMBL1155296

# Test system: HT-29
# PROTOCOL TEXT: Growth inhibition of human HT-29 cells at 50 uM after 72 hrs by luminescent assay
# Assay type: functional
# RUN CONDITIONS: HT-29, 72 h, read-out: GI
MEASURE NAME: inhibition of growth at 50 µM (%)
Report the value in % with no unit label.

// known answers, use as guide
>>> print(df.to_string())
                                        mol  result
0  COc1ccccc1-c1cc(-c2ccc(Br)cc2)[nH]c(=O)c1C#N    13.6
1  CCOc1ccccc1-c1cc(-c2ccc3c(c2)OCO3)[nH]c(=N)c1C#N    91.2
2  CCOc1ccccc1-c1cc(-c2ccc(Br)cc2)[nH]c(=N)c1C#N    99.8
3  CCOc1ccccc1-c1cc(-c2ccc3c(c2)OCO3)[nH]c(=O)c1C#N    8.28
4  N#Cc1c(-c2cccs2)cc(-c2ccc(Br)cc2)[nH]c1=N    98.7

Give inhibition of growth at 50 µM for N#Cc1c(-c2ccsc2)cc(-c2ccc(Br)cc2)[nH]c1=O
-25

Give inhibition of growth at 50 µM for CCOc1ccc(-c2cc(-c3ccc4c(c3)OCO4)[nH]c(=O)c2C#N)cc1
3.84
